- Test System: HLA-B*57:01
- Procedure Details: IEDB peptide-MHC binding, purified MHC/competitive/fluorescence; filed as Kd, often an IC50 or EC50 that approximates it; bounds were set here for any values at or beyond the usual limits of such assays
- Conditions Used: source organism: Rickettsia bellii RML369-C
Observed Property: Kd

biosequence=AKIALAVYK reported="≥ 20 µM"

###

- Test System: HLA-B*51:01
- Procedure Details: IEDB peptide-MHC binding, purified MHC/competitive/fluorescence; filed as Kd, often an IC50 or EC50 that approximates it; bounds were set here for any values at or beyond the usual limits of such assays
- Conditions Used: source organism: Cryptosporidium parvum Iowa II
Observed Property: Kd

biosequence=GFPFFIMPK reported="≥ 20 µM"
biosequence=KIVPLPPMY reported="≥ 20 µM"

###

- Test System: HLA-A*24:03
- Procedure Details: IEDB peptide-MHC binding, purified MHC/direct/fluorescence; filed as Kd, often an IC50 or EC50 that approximates it; bounds were set here for any values at or beyond the usual limits of such assays
- Conditions Used: source organism: Salmonella enterica subsp. enterica serovar Typhi
Observed Property: Kd (nM)

biosequence=VPQTDAGVT observed_property=Kd reported=1270

###

- Test System: HLA-A*02:17
- Procedure Details: IEDB peptide-MHC binding, purified MHC/competitive/radioactivity; filed as Kd, often an IC50 or EC50 that approximates it; bounds were set here for any values at or beyond the usual limits of such assays
- Conditions Used: source organism: Dengue virus 2 Thailand/NGS-C/1944
Observed Property: Kd (nM)

biosequence=LVISGLFPV observed_property=Kd scale_unit=nM reported=2.17

###

- Test System: HLA-A*24:02
- Procedure Details: IEDB peptide-MHC binding, purified MHC/competitive/radioactivity; filed as Kd, often an IC50 or EC50 that approximates it; bounds were set here for any values at or beyond the usual limits of such assays
- Conditions Used: source organism: Mammarenavirus whitewaterense
pKd: −log10 of the molar value.
Observed Property: pKd

biosequence=YYGLVTEQF observed_property=pKd relation== reported=8.49
biosequence=EGCPKPHRL observed_property=pKd relation=≤ reported=4.33

###

- Test System: HLA-A*11:01
- Procedure Details: IEDB peptide-MHC binding, purified MHC/direct/fluorescence; filed as Kd, often an IC50 or EC50 that approximates it; bounds were set here for any values at or beyond the usual limits of such assays
- Conditions Used: source organism: Pseudomonas aeruginosa
Observed Property: Kd

biosequence=VVAVGGLAI reported="≥ 20 µM"
biosequence=LPQTRWQAV reported="≥ 20 µM"

###

- Test System: HLA-A*02:19
- Procedure Details: IEDB peptide-MHC binding, purified MHC/direct/fluorescence; filed as Kd, often an IC50 or EC50 that approximates it; bounds were set here for any values at or beyond the usual limits of such assays
- Conditions Used: source organism: Burkholderia mallei
pKd: −log10 of the molar value.
Observed Property: pKd

biosequence=RVVRPWGSY reported="≤ 4.70"

###

- Test System: HLA-A*02:01
- Procedure Details: IEDB peptide-MHC binding, purified MHC/competitive/fluorescence; filed as Kd, often an IC50 or EC50 that approximates it; bounds were set here for any values at or beyond the usual limits of such assays
- Conditions Used: source organism: Vaccinia virus WR
Observed Property: Kd (nM)

biosequence=YPAVINSNI relation=≥ reported=20000
biosequence=GLNDYLHSV relation== reported=1.6

###

- Test System: HLA-B*15:42
- Procedure Details: IEDB peptide-MHC binding, purified MHC/competitive/fluorescence; filed as Kd, often an IC50 or EC50 that approximates it; bounds were set here for any values at or beyond the usual limits of such assays
- Conditions Used: source organism: Human immunodeficiency virus 1
Observed Property: Kd

biosequence=RPMTYKAAL observed_property=Kd reported="≥ 5 µM"

###

- Test System: HLA-A*24:03
- Procedure Details: IEDB peptide-MHC binding, purified MHC/direct/fluorescence; filed as Kd, often an IC50 or EC50 that approximates it; bounds were set here for any values at or beyond the usual limits of such assays
- Conditions Used: source organism: Burkholderia mallei
Observed Property: Kd

biosequence=RVVRPWGSY observed_property=Kd reported="≥ 20 µM"

###

- Test System: HLA-B*40:01
- Procedure Details: IEDB peptide-MHC binding, purified MHC/direct/fluorescence; filed as Kd, often an IC50 or EC50 that approximates it; bounds were set here for any values at or beyond the usual limits of such assays
- Conditions Used: source organism: Vibrio vulnificus
Observed Property: Kd

biosequence=DFPIFNQRY reported="≥ 20 µM"
biosequence=LLTQSNAGF reported="≥ 20 µM"

###

- Test System: HLA-B*58:01
- Procedure Details: IEDB peptide-MHC binding, purified MHC/direct/fluorescence; filed as Kd, often an IC50 or EC50 that approximates it; bounds were set here for any values at or beyond the usual limits of such assays
- Conditions Used: source organism: Mammarenavirus lassaense
pKd: −log10 of the molar value.
Observed Property: pKd

biosequence=LSVSSRCPI test_system=HLA-B*58:01 reported=6.86

###

- Test System: HLA-A*68:01
- Procedure Details: IEDB peptide-MHC binding, purified MHC/competitive/radioactivity; filed as Kd, often an IC50 or EC50 that approximates it; bounds were set here for any values at or beyond the usual limits of such assays
- Conditions Used: source organism: Hepacivirus hominis
Observed Property: Kd

biosequence=RLGVRATRK reported="≥ 80 µM"

###

- Test System: HLA-B*53:01
- Procedure Details: IEDB peptide-MHC binding, purified MHC/competitive/fluorescence; bounds were set here for any values at or beyond the usual limits of such assays
- Conditions Used: source organism: Tarsius lariang
pIC50: −log10 of the molar value.
Observed Property: pIC50

biosequence=TEAEKWPFF observed_property=pIC50 reported="≤ 4.70"

###

- Test System: HLA-B*40:01
- Procedure Details: IEDB peptide-MHC binding, purified MHC/competitive/radioactivity; filed as Kd, often an IC50 or EC50 that approximates it; bounds were set here for any values at or beyond the usual limits of such assays
- Conditions Used: source organism: Lymphocytic choriomeningitis virus (strain Armstrong)
pKd: −log10 of the molar value.
Observed Property: pKd

biosequence=PDTTYLGPL relation=≤ reported=4.12
biosequence=LDVLCLSSL relation== reported=5.21
biosequence=REAVESCPLM relation== reported=6.98

###

- Test System: HLA-B*15:17
- Procedure Details: IEDB peptide-MHC binding, purified MHC/direct/fluorescence; filed as Kd, often an IC50 or EC50 that approximates it; bounds were set here for any values at or beyond the usual limits of such assays
- Conditions Used: source organism: Influenza A virus (A/swine/Miyagi/5/2003(H1N2))
Observed Property: Kd (nM)

biosequence=GTEKLTITY reported=6.5

###

- Test System: HLA-A*02:03
- Procedure Details: IEDB peptide-MHC binding, purified MHC/competitive/radioactivity; filed as Kd, often an IC50 or EC50 that approximates it; bounds were set here for any values at or beyond the usual limits of such assays
- Conditions Used: source organism: Dengue virus 2 Peru/IQT2913/1996
Observed Property: Kd (nM)

biosequence=LVISGLFPV test_system=HLA-A*02:03 reported=3.62

###

- Test System: HLA-B*44:02
- Procedure Details: IEDB peptide-MHC binding, purified MHC/competitive/radioactivity; filed as Kd, often an IC50 or EC50 that approximates it; bounds were set here for any values at or beyond the usual limits of such assays
- Conditions Used: source organism: Mammarenavirus lassaense
Observed Property: Kd (µM)

biosequence=KEAYCQEFSL observed_property=Kd scale_unit=µM reported=4.18

###

- Test System: HLA-A*24:03
- Procedure Details: IEDB peptide-MHC binding, purified MHC/direct/fluorescence; filed as Kd, often an IC50 or EC50 that approximates it; bounds were set here for any values at or beyond the usual limits of such assays
- Conditions Used: source organism: Sudan ebolavirus - Maleo (1979)
Observed Property: Kd

biosequence=IFLKPDETF reported="36.6 nM"

###

- Test System: HLA-A*02:01
- Procedure Details: IEDB peptide-MHC binding, purified MHC/direct/fluorescence; filed as Kd, often an IC50 or EC50 that approximates it; bounds were set here for any values at or beyond the usual limits of such assays
- Conditions Used: source organism: Entamoeba histolytica HM-1:IMSS
Observed Property: Kd (nM)

biosequence=SMFERDFHF reported=4

###

Examples of sequences with documented pKd follow.
- Test System: HLA-A*23:01
- Procedure Details: IEDB peptide-MHC binding, purified MHC/competitive/radioactivity; filed as Kd, often an IC50 or EC50 that approximates it; bounds were set here for any values at or beyond the usual limits of such assays
- Conditions Used: source organism: Mammarenavirus lassaense
pKd: −log10 of the molar value.
Observed Property: pKd

biosequence=VPVHLCNLI test_system=HLA-A*23:01 relation== reported=5.50
biosequence=MCPFLFLAV test_system=HLA-A*23:01 relation=≤ reported=4.29
